Tested System: Gox1615 (Gluconobacter oxydans, UniProt Q5FQJ0)
Sequence (Q5FQJ0 1-332): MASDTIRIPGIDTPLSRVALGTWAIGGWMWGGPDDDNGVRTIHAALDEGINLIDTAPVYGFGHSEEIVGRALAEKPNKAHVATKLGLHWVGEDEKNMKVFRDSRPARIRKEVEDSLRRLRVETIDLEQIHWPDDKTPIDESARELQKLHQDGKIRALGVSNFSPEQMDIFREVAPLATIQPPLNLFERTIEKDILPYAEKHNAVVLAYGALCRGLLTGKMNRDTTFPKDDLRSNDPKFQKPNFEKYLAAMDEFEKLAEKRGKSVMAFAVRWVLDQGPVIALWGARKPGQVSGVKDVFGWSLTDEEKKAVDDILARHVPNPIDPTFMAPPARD
Experiment: NADPH-dependent α-ketocarbonyl reductase activity assay (rate of decrease of NADPH at 340 nm)
Type: biochemical
Condition Set: Table 5; cofactor NADPH; U/mg = µmol/mg·min
# Specific Activity (U/mg)* >= 6 U/mg gives 1 (yes), anything below gives 0 (no)

Take a look at these entries with their results.
# Compound, Discrete Label
data = [
    ("CC(=O)C(=O)c1ccccc1", "0 (no)"),
    ("O=CC(=O)c1ccccc1", "1 (yes)"),
    ("O=CC=O", "0 (no)"),
    ("CCCC(=O)C(C)=O", "1 (yes)"),
    ("CC(=O)C=O", "1 (yes)"),
    ("CC(=O)C(=O)OCCC(C)C [isoamyl pyruvate]", "0 (no)"),
    ("CCC(=O)C(C)=O", "1 (yes)"),
    ("CCOC(=O)C(C)=O [ethyl pyruvate]", "0 (no)"),
]

Here is another compound to look at.
Please tell me: is the compound CCC(=O)C(=O)CC at or over 6 U/mg in terms of Specific Activity (U/mg)*?
0 (no)
